target: PRC2 containing wt EZH2 (Homo sapiens (Human), UniProt Q15910); test: EZH2 residence time assay (100-fold dilution of pre-formed enzyme-inhibitor complex); assay type: biochemical
Sequence (Q15910 whole entry): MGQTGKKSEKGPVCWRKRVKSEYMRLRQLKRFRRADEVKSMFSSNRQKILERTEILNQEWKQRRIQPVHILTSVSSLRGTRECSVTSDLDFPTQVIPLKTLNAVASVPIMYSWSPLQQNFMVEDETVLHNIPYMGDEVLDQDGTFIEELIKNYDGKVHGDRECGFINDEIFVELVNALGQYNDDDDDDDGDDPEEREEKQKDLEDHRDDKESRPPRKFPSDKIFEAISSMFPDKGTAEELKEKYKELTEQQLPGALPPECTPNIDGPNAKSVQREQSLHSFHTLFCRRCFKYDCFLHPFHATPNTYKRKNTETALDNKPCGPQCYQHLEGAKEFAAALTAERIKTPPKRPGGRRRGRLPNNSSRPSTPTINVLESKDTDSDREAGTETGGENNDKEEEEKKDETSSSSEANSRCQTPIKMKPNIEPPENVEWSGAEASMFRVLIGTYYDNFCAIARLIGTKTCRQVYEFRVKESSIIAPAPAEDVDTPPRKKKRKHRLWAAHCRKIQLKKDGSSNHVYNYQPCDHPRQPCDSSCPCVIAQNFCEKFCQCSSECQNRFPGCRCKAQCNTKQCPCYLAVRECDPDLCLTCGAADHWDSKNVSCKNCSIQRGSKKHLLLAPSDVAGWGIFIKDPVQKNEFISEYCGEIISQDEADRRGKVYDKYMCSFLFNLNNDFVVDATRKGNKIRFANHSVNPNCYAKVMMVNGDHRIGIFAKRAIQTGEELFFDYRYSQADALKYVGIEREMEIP
Sequence (O75530 whole entry partner): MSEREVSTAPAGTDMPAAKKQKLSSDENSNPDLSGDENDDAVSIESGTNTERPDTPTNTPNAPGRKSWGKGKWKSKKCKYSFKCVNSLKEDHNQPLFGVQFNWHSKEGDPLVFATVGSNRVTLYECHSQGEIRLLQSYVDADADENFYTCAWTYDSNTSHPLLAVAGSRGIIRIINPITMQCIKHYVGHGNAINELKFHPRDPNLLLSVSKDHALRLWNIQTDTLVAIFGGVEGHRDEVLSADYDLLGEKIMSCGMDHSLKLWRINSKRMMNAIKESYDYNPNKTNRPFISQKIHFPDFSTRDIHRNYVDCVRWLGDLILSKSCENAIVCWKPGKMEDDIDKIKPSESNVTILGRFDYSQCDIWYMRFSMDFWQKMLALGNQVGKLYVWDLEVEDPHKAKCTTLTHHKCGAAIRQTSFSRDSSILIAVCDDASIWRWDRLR
Sequence (Q15022 whole entry partner): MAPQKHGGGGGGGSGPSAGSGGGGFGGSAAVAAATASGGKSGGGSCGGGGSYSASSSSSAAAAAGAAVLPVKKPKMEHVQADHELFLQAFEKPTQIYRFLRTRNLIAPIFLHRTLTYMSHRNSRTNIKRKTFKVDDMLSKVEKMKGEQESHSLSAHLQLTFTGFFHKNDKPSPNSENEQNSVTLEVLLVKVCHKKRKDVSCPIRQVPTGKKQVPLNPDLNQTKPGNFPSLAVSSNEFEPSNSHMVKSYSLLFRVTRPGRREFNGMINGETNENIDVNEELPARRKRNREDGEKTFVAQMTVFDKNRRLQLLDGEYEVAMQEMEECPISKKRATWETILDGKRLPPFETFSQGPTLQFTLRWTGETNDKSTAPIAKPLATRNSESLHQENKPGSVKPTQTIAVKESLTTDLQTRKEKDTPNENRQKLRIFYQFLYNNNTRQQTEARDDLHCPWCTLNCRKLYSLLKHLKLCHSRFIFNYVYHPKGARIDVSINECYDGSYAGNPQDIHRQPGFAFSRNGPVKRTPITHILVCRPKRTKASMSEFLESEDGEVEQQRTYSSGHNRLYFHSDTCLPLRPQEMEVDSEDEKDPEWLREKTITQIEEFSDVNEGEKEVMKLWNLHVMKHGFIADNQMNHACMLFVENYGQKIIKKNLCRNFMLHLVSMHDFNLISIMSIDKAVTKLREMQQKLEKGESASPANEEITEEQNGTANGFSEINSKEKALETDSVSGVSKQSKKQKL
Sequence (Q09028 whole entry partner): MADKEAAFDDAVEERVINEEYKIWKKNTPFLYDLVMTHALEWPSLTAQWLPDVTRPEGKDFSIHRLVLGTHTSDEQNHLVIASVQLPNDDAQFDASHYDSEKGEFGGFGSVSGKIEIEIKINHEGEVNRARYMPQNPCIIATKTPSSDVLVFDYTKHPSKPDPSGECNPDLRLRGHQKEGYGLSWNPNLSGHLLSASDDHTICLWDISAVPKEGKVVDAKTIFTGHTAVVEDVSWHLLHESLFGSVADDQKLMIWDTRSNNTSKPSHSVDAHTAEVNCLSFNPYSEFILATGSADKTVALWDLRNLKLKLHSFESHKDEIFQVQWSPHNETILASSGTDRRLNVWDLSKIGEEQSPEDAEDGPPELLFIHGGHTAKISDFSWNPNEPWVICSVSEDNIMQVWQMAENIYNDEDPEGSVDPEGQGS
Sequence (Q6ZN18 whole entry partner): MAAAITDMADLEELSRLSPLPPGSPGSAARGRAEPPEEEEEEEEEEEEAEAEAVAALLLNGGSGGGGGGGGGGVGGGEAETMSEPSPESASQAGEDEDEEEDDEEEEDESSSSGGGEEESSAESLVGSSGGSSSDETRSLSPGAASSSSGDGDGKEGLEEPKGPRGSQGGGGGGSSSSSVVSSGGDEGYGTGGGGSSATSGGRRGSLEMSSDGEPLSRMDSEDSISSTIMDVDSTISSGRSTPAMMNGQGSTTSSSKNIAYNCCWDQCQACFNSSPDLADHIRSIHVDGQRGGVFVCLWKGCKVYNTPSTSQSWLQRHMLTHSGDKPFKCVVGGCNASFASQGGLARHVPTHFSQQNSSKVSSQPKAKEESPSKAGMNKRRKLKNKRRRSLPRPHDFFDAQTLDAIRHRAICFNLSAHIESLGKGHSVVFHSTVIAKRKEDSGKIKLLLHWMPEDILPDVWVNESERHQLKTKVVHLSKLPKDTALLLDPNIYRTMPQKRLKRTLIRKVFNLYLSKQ
measurement-type: residence time

>>> value_reported("COc1cc(C)[nH]c(=O)c1CNC(=O)c1c(C)n([C@H](C)C2CCN(CC(C)(C)O)CC2)c2ccccc12")
"< 30 min"
>>> value_reported("CSc1cc(C)[nH]c(=O)c1CNC(=O)c1c(C)n([C@H](C)C23CC(N(C)CC(F)(F)F)(C2)C3)c2ccccc12 [drawing 237]")
"300 to 2100 min"
>>> value_reported("COc1cc(C)[nH]c(=O)c1CNC(=O)c1c(C)n([C@H](C)C2CCC(N3CC(OC)C3)CC2)c2ccccc12 (single isomer, unassigned) [drawing 217]")
"< 30 min"
>>> value_reported("CSc1cc(C)[nH]c(=O)c1CNC(=O)c1c(C)n([C@H](C)C2CCN(CC(F)(F)F)CC2)c2ccccc12 [drawing 243]")
"300 to 2100 min"
>>> value_reported("CSc1cc(C)[nH]c(=O)c1CNC(=O)c1c(C)n([C@H](C)C2CCOCC2)c2ccccc12 [drawing 247]")
"30 to 300 min"
>>> value_reported("COC1CCC([C@@H](C)n2c(C)c(C(=O)NCc3c(SC)cc(C)[nH]c3=O)c3ccccc32)CC1 (single isomer, unassigned) [drawing 248]")
"> 2100 min"

###

molecular target: PRC2 containing wt EZH2 (Homo sapiens (Human)); test: EZH2 residence time assay (100-fold dilution of pre-formed enzyme-inhibitor complex); assay type: biochemical; conditions: read-out: Residence Time
Readings of residence time for the listed compounds
measurement-type: residence time

>>> value_reported("COc1cc(C)[nH]c(=O)c1CNC(=O)c1c(C)n([C@H](C)C23CC(N(C)CC(F)(F)F)(C2)C3)c2ccccc12")
"30 to 300 min"
>>> value_reported("COc1cc(C)[nH]c(=O)c1CNC(=O)c1c(C)n([C@H](C)C2CCC(NC3COC3)CC2)c2ccccc12 (single isomer, unassigned) [drawing 207]")
"< 30 min"
>>> value_reported("Cc1cc(Cl)c(CNC(=O)c2c(C)n([C@H](C)C3OCC(NC(C)(C)C)CO3)c3ccccc23)c(=O)[nH]1 (single isomer, unassigned) [drawing 221]")
"30 to 300 min"
>>> value_reported("COc1cc(C)[nH]c(=O)c1CNC(=O)c1c(C)n([C@H](C)C2CCN(CC(F)(F)F)CC2)c2ccccc12")
"30 to 300 min"
>>> value_reported("Cc1cc(Cl)c(CNC(=O)c2c(C)n([C@H](C)C3CCC(NC4COC4)CC3)c3ccccc23)c(=O)[nH]1 (single isomer, unassigned) [drawing 211]")
"< 30 min"
>>> value_reported("Cc1cc(C)c(CNC(=O)c2c(C)n([C@H](C)C3CCC(NC4COC4)CC3)c3ccccc23)c(=O)[nH]1 (single isomer, unassigned) [drawing 209]")
"< 30 min"

###

biological target: PRC2 containing wt EZH2 (Homo sapiens (Human), UniProt Q15910); experiment: EZH2 biochemical assay (IC50), 3H-SAM incorporation into biotinylated H3 peptide; settings: 30 pM PRC2 containing wt EZH2; 3-5 h pre-incubation; read-out: EZH2 (IC50)
pIC50: −log10 of the molar value.
Readings of pIC50 for the listed compounds
measurement-type: pIC50

>>> value_reported("CSc1cc(C)[nH]c(=O)c1CNC(=O)c1c(C)n([C@H](C)C2CCC(N3CC[C@H](OC(F)F)C3)CC2)c2ncccc12 (stereo partly drawn)")
"> 9.30"
>>> value_reported("CSc1cc(C)[nH]c(=O)c1CNC(=O)c1c(C)n([C@H](C)C2CCC(NC3(C(F)(F)F)CC3)CC2)c2ncccc12 (stereo partly drawn)")
"> 9.30"
>>> value_reported("CSc1cc(C)[nH]c(=O)c1CNC(=O)c1c(C)n([C@H](C)C2CCC(NC3(CO)COC3)CC2)c2cc(F)ccc12 (single isomer, unassigned) [159 (isomer 1)]")
"> 9.30"
